Molecular target: Rap guanine nucleotide exchange factor 3 (Homo sapiens) (UniProt O95398)
Sequence (O95398 whole entry, looked up): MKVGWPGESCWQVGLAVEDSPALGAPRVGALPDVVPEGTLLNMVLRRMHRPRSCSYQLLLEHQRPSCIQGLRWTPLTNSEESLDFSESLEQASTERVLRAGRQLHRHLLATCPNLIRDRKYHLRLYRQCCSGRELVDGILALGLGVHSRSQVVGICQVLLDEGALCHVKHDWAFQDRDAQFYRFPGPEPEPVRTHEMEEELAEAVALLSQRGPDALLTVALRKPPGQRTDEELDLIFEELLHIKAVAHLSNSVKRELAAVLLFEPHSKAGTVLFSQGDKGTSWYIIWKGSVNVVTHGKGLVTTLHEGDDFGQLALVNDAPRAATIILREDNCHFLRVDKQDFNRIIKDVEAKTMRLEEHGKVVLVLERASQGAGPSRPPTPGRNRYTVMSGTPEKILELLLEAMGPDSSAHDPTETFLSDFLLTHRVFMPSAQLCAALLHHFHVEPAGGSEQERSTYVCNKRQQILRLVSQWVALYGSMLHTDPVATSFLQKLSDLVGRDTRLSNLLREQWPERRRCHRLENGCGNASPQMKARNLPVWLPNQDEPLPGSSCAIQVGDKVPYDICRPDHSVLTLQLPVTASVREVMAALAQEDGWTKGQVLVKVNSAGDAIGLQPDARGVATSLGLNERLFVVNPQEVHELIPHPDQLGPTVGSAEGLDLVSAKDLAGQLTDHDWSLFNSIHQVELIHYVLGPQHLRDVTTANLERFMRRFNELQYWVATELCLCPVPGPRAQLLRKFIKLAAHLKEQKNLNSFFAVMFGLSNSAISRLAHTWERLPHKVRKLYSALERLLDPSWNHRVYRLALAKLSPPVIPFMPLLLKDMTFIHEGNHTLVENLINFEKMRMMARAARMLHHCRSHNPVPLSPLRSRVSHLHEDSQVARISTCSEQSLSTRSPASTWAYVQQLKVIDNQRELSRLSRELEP
Test: Confirmatory qHTS for antagonist of cAMP-regulated guanine nucleotide exchange factor 3 (EPAC1) (AID 1645880); further: nearly all actives have a fitted effect of over 55% in size
Conditions: EPAC1 Rap1B-BODIPY-GDP exchange, fluorescence; series mostly up to 115 µM
Results filed as inconclusive are left out. Active and inactive are the calls of the source. The call rests on the fitted dose curve; in most records, active means well fitted inhibition curve with a large enough effect; inconclusive means small, poorly fitted or top-dose-only effect; inactive means no such curve, though single readings can be large or run the other way.
Classes used: active, inactive

                                    compound  assigned_class
 0      COC(=O)c1c(SC)nc2ccccc2c1OCc1ccccc1C        inactive
 1  Oc1ccc(Br)cc1C=Nc1cccn2cc(-c3ccccc3)nc12          active
 2  CC(NCc1cccn1C)c1ccccc1 (stereo not given)        inactive
 3  Oc1cccc(C(Nc2ccccn2)c2ccc3cccnc3c2O)c1Cl (stereo not given)        inactive
 4         Cc1cc(-c2ccc(Br)s2)nc(-n2cccc2)n1        inactive
 5  CCc1ccc(S(=O)(=O)/N=C2\C=C(NS(=O)(=O)c3ccccc3)C(=O)c3ccccc32)cc1          active
 6  Cc1c(C(=O)N2c3ccccc3CC2C)oc2ccccc12 (stereo not given)        inactive
 7            O=C(CCCc1ccccc1)NCc1cn2ccsc2n1        inactive
 8  O=c1[nH]c(/C=C/c2cccc([N+](=O)[O-])c2)c([N+](=O)[O-])c(=O)[nH]1          active
 9  Cc1cccc(N(C(=O)c2csnn2)C(C(=O)NCc2ccccc2)c2cccs2)c1 (stereo not given)        inactive
10  Cc1ccccc1C(=O)/C(C#N)=N/Nc1c(C)n(C)n(-c2ccccc2)c1=O          active
11  COC(=O)c1ccc(CNC(=O)/C=C/[C@H]2O[C@@H](n3cc(C)c(=O)[nH]c3=O)C[C@@H]2O)cc1        inactive
12  COc1ccc(CNC(=O)c2cc(=O)c3cc(C)ccc3o2)cc1        inactive
13  O=C(CN1C(=O)N/C(=C\c2ccccc2OCc2ccc(C(=O)O)cc2)C1=O)Nc1ccccc1F          active
14  COc1cccc2sc(N3CCN(c4nc5ccccc5s4)CC3)nc12        inactive
15  CC1CCCN(CC(=O)Nc2cc(Cl)ccc2Oc2ccccc2)C1 (stereo not given)        inactive
16              Cc1ccccc1OCCn1cnc2c(N)ncnc21        inactive
17  N#Cc1cc2c(=O)n3ccccc3nc2n(-c2nnc(SCc3ccccc3Cl)s2)c1=O        inactive
18  Cc1cccc(CN2[C@@H](CC(C)C)COCCS2(=O)=O)c1        inactive
19         Cc1ccccc1OCCC(=O)OCC(=O)NC1CCCCC1        inactive
20  Cc1nn(-c2ccccc2)c(Cl)c1/C=C1\SC(=S)NC1=O          active
21  COc1ccc(N2CCN(C(=O)COC(=O)c3ccc(C)o3)CC2)cc1        inactive
22  CCOc1cc(/C=C2\SC(=S)N(NS(=O)(=O)c3ccccc3)C2=O)ccc1O          active
23  CO/N=C/c1ccc(Sc2ccccc2)c([N+](=O)[O-])c1        inactive
24  CN1OC[C@@H]2CN(C(=O)CCc3ccccc3)[C@H](c3cccc(-c4ccc(C#N)cc4)c3)C[C@@H]21        inactive

---

activity change, negative = inhibition values for the molecules below.
Assay: NFAT Signaling Pathway (AID 444);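 further: carbachol stimulus at about its EC50 of 1 µM final; on the % scale 0 is the no-effect control and ±100 the full control effect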
Conditions: Jurkat NFAT-bla M1, carbachol, beta-lactamase ratio, 5 h; at 17.2 µM (top of the series) unless noted
Inconclusive results are not listed.
Observed Property: activity change, negative = inhibition (%)

In [3]: df
Out[3]:
                           structure_string                       observed_property  measurement_units  test_value
0  CCC(=O)OCC(=O)[C@@]1(OC(=O)CC)[C@H](C)C[C@@H]2[C@H]3CCC4=CC(=O)C=C[C@]4(C)[C@]3(Cl)[C@@H](O)C[C@@]21C  activity change, negative = inhibition                  %       -10.9
1  C[C@@]12C=CC(=O)C=C1CC[C@H]1[C@H]3CC[C@](O)(C(=O)CO)[C@]3(C)CC(=O)[C@@H]12  activity change, negative = inhibition                  %       -19.6
2       Nc1ccn([C@@H]2CC[C@H](CO)O2)c(=O)n1  activity change, negative = inhibition                  %       -7.49
3  O=C(Nc1ccccc1)OC[C@H](CN1CCCCC1)OC(=O)Nc1ccccc1  activity change, negative = inhibition                  %       -6.24
4  Cc1ccccc1N1C(=O)c2cc(S(N)(=O)=O)c(Cl)cc2N[C@H]1C  activity change, negative = inhibition                  %        1.02

---

Target: Rap guanine nucleotide exchange factor 4 (Homo sapiens)
Assay: Confirmatory qHTS for antagonist of cAMP-regulated guanine nucleotide exchange factor 4 (EPAC2) (AID 1645885); further: nearly all actives have a fitted effect of over 25% in size
Conditions: EPAC2 Rap1B-BODIPY-GDP exchange fluorescence, biochemical; series mostly up to 12.7 µM
Results filed as inconclusive are left out. Activity calls are given as the source filed them. The call rests on the fitted dose curve; in most records, active means well fitted inhibition curve with a large enough effect; inconclusive means small, poorly fitted or top-dose-only effect; inactive means no such curve, though single readings can be large or run the other way.
Classes used: active, inactive

>>> df
                                   molecule  assigned_class
0  CC1CC1c1ccc(/C=C(\C#N)C(=O)Nc2ccccc2Cl)o1 (stereo unspecified)        inactive
1  Cc1cc(Nc2cccc(C(F)(F)F)c2)nc2ccc(NC(=O)c3ccc(N(C)C)cc3)cc12        inactive
2  CCOc1ccccc1NC(=O)COC(=O)c1ccc(S(=O)(=O)N2CCCC2)cc1        inactive
3  CN(C)c1ccc(/C=C/c2ccnc3ccc4ccccc4c23)cc1          active
4  COc1cc2c(cc1OC)C(c1ccccc1)N(C(=O)c1ccco1)CC2 (stereo unspecified)        inactive
5  Cc1cc(C)n2[nH]c(=O)c(N=Nc3ccc(S(N)(=O)=O)cc3)c2n1          active

---

System: DIV17
Test: qHTS profiling for inhibitors of Plasmodium falciparum proliferation (AID 504749); further: nearly all actives have a fitted effect of over 60% in size
Conditions: P. falciparum in erythrocytes, SYBR Green DNA, 72 h; series mostly up to 12.8 µM
Inconclusive results are not listed. Activity calls are given as the source filed them. The call rests on the fitted dose curve; in most records, active means well fitted inhibition curve with a large enough effect; inconclusive means small, poorly fitted or top-dose-only effect; inactive means flat fitted curve, though single readings scatter.
Classes used: active, inactive

Molecule	Assigned Class
Cc1ccc(S(=O)(=O)NC(=O)NN2C[C@H]3CCC[C@@H]3C2)cc1	inactive
COc1ccc(OC)c([C@H](O)CNC(=O)CN)c1	inactive
OCC1OC([S-])[C@H](O)C(O)C1O.[Au+] (stereo not given in full)	inactive
CNC1CC(N)[C@H](O)[C@@H](O[C@@H]2OC(CO)C3OC4(OC(C(N)CO)C(O)C(O)C4O)O[C@@H]3[C@H]2O)C1O (stereo not given in full)	inactive
COc1ccccc1OC[C@H](O)CO	inactive
O=C1O[C@@H]([C@@H](O)CO)[C@@H](O)[C@H]1O	inactive
NC(=O)c1cc[n+](CC2=C(C(=O)[O-])N3C(=O)[C@@H](NC(=O)Cc4cccs4)[C@@H]3SC2)cc1	inactive
C=CCN1C(=CCO)[C@H]2C[C@H]3[C@@H]1CC[C@@]31c3ccccc3N3C=C4[C@@H]5N(/C=C/2[C@H]31)c1ccccc1[C@]51CC[C@H]2[C@H]1C[C@@H]4/C(=C/CO)N2CC=C	inactive
CC(=O)OCC(=O)[C@@]1(O)CC[C@@H]2[C@H]3CCC4=CC(=O)C=C[C@]4(C)[C@]3(F)[C@@H](O)C[C@@]21C	inactive
COc1ccc(CC(N)C(=O)NC2C(CO)OC(n3cnc4c(N(C)C)ncnc43)C2O)cc1 (stereo not given)	active

---

Target: Rap guanine nucleotide exchange factor 3 (Homo sapiens)
Assay: Counterscreen qHTS for agonist of cAMP-regulated guanine nucleotide exchange factor 3 (EPAC1) (AID 1645889); further: % of control where 0% means no effect; nearly all actives have a fitted effect of over 40% in size
Conditions: EPAC1 Rap1B-BODIPY-GDP exchange, fluorescence; series mostly up to 154 µM
Records with an inconclusive call do not appear. Activity calls are given as the source filed them. Calls follow the shape of the dose curve; as a rule, active = well fitted activation curve with a large enough effect; inconclusive = small, poorly fitted or top-dose-only effect, or another doubt; inactive = no such curve, though single readings can be large or run the other way.
Observed Property: activation

                                   compound  observed_property                     test_value
0  CCOc1ccc(NS(=O)(=O)c2cc3c(cc2C)N(C)CCO3)cc1         activation  29.5% [at 30.8 µM] (inactive)
1  COc1ccccc1OCCCSc1nc(-c2ccc(C(C)(C)C)cc2)nc2cc(=O)[nH]n12         activation                       inactive
2  COc1ccc(N(C)C(=O)c2oc(=O)c3ccccc3c2-c2ccc(C)cc2)c(OC)c1         activation                       inactive
3  CN(C)c1ccccc1C(=O)N1CCCC(C(=O)c2ccc3ccccc3c2)C1 (stereo not given)         activation  21.4% [at 30.8 µM] (inactive)
4  O=C(O)C1CSC(c2ccco2)N1 (stereo not given)         activation  2.32% [at 30.8 µM] (inactive)
5  O=C(c1ccc(Cl)cc1)C(CN1CCCCC1)c1ccccc1 (stereo not given)         activation                       inactive
6  O=C(N[C@@H](Cc1c[nH]c2ccccc12)C(=O)O)OCC1c2ccccc2-c2ccccc21         activation                       inactive
7  CC(/C=C1\SC(=S)N(C(C(=O)O)C(C)C)C1=O)=C\c1ccccc1 (stereo not given)         activation                       inactive
8  CCCN1C(=O)c2cc(C(=O)Nc3ccccc3CC)ccc2C1O (stereo not given)         activation                       inactive
9           CCCCNC(=O)NC12CC3CC(CC(C3)C1)C2         activation                       inactive

Data credit: PubChem BioAssay (NCATS)
